- test.system: Hepatitis B surface antigen (HBs Ag) (Hepatitis B virus) (UniProt P03141)
- Sequence (P03141 175-400): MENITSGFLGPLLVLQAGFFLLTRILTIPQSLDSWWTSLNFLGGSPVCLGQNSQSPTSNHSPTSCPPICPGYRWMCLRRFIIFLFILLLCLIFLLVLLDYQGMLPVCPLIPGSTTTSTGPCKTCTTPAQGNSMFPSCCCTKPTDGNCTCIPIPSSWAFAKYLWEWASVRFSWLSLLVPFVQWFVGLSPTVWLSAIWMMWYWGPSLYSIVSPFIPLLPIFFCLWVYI
- measurement.context: magnetic bead pulldown with q-PCR, BD buffer, room temperature
property.name: Kd (nM)
# number only, unit nM dropped from output

Query: Which Kd value belongs to AGCAGCACAGAGGTCCTGCATCACGAAGCCTGGCAGCGTGCTACCGTGAA [MP-1] ?
Result: 28.3

All figures here come from patent US20190154677.
